Test system: Zika virus NS2B-NS3 protease (unlinked)
Assay summary: Optimization of GU AMC qHTS for Zika virus inhibitors: Unlinked NS2B-NS3 protease assay (AID 1347151);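 note: 0% = no-inhibitor control and -100% = no-enzyme control; nearly all actives have a fitted effect of over 80% in size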
Conditions: recombinant ZIKV NS2B-NS3 protease, fluorogenic AMC substrate; series mostly up to 52.5 µM
Text: Avindra Nath, Ph.D., National Institute of Neurological Disorders and Stroke (NINDS), Bethesda, MD Radhakrishnan Padmanabhan, Ph.D., Georgetown University (GU), Washington D.C. Zika Virus causes congenital defects, including microcephaly and is associated with Guillain-Barre syndrome, eningoencephalitis and myelitis in infected adult. […]
Inconclusive results are not listed. Calls of active or inactive are those of the source. Calls come from the whole dose curve; as a rule, active = well fitted inhibition curve with a large enough effect; inconclusive = small, poorly fitted or top-dose-only effect; inactive = no such curve, though single readings can be large or run the other way.
Returns: one label drawn from Y for active, N for inactive

CCN(CC)CCCN(c1ccccc1)C1Cc2ccccc2C1 : N

For C[C@]12C=CC(=O)C=C1CC[C@H]1[C@@H]3C[C@@H](O)[C@](O)(C(=O)CO)[C@@]3(C)C[C@H](O)[C@@]12F , what call appears in the results of this test? N

For CC(=O)[C@]1(O)Cc2c(O)c3c(c(O)c2[C@@H](O[C@H]2C[C@H](N)[C@H](O)[C@H](C)O2)C1)C(=O)c1ccccc1C3=O , what call appears in the results of this test? N

For CC(C)[N+](C)(CCOC(=O)C1c2ccccc2Oc2ccccc21)C(C)C , what call appears in the results of this test? N

For NS(=O)(=O)c1cc2c(cc1Cl)NC(C1CC3C=CC1C3)NS2(=O)=O (centres undefined) , what call appears in the results of this test? N

For NC(N)=NC(=O)Cc1c(Cl)cccc1Cl , what call appears in the results of this test? N

For C[C@]12CCC(=O)C=C1CC[C@@H]1[C@@H]2C(=O)C[C@@]2(C)[C@H]1CC[C@]2(O)C(=O)CO , what call appears in the results of this test? N

For CC1=NS(=O)(=O)c2cc(Cl)ccc2N1 , what call appears in the results of this test? N

For C[N+](C)(C)CCCCCCCCCC[N+](C)(C)C , what call appears in the results of this test? N

For CC(N=C(NC#N)Nc1ccncc1)C(C)(C)C (centres undefined) , what call appears in the results of this test? N

For CCCOc1ccccc1-c1nc2n[nH]nc2c(=O)[nH]1 , what call appears in the results of this test? N

For CC(C)(Oc1ccc(CCNC(=O)c2ccc(Cl)cc2)cc1)C(=O)O , what call appears in the results of this test? N

For CC(C)COCC(CN(Cc1ccccc1)c1ccccc1)N1CCCC1 (centres undefined) , what call appears in the results of this test? N

For C[C@]12CCC(=O)C=C1CC[C@@H]1[C@@H]2CC[C@@]2(C)[C@H]1CC[C@]2(O)C(=O)CO , what call appears in the results of this test? N

For CC(=O)OCC1=C(C(=O)O)N2C(=O)[C@@H](NC(=O)Cc3cccs3)[C@H]2SC1 , what call appears in the results of this test? N

For CCN(CC)CC(=O)Nc1c(C)cccc1C , what call appears in the results of this test? N

For COC(=O)C1=C(C)NC(C)=C(C(=O)OCCN(C)Cc2ccccc2)C1c1cccc([N+](=O)[O-])c1 (centres undefined) , what call appears in the results of this test? N

For C#CCN(C)CCCOc1ccc(Cl)cc1Cl , what call appears in the results of this test? N

---

Test system: HEK293
Assay summary: Cytotoxic Profiling of Annotated Libraries Using Quantitative High-Throughput Screening (AID 1296008); note: nearly all actives have a fitted effect of over 60% in size
Conditions: Five cell lines viability, CellTiter-Glo ATP luminescence, 48-72 h
Records with an inconclusive call do not appear. Active and inactive are the calls of the source. Calls come from the whole dose curve; as a rule, active = well fitted inhibition curve with a large enough effect; inconclusive = small, poorly fitted or top-dose-only effect; inactive = flat fitted curve, though single readings scatter.
Returns: one label drawn from true (1) for active, false (0) for inactive

For Cc1cc(C)c(/C=C2\C(=O)Nc3ccccc32)[nH]1 , what call appears in the results of this test? false (0)

For Nc1c2c(nc3ccccc13)CCCC2O (centres undefined) , what call appears in the results of this test? false (0)

For CC(C)COCC(CN(Cc1ccccc1)c1ccccc1)N1CCCC1 (centres undefined) , what call appears in the results of this test? true (1)

For NC(=Nc1ccccc1)Nc1ccccc1 , what call appears in the results of this test? false (0)

---

Tested on: C33A
Assay summary: Primary qHTS to identify gynecologic anti-cancer compounds using libraries of approved drugs and bioactive compounds (AID 1345084); note: nearly all actives have a fitted effect of over 55% in size
Conditions: Gynecologic cancer cell panel viability, ATPlite luminescence, 48 h; series mostly up to 57.5 µM
Records with an inconclusive call do not appear. Calls of active or inactive are those of the source. The call rests on the fitted dose curve; in most records, active means well fitted cell-killing curve with a large enough effect; inconclusive means small, poorly fitted or top-dose-only effect, or effect the other way; inactive means flat fitted curve, though single readings scatter.
Returns: one label drawn from active, inactive

Worked examples follow.
Cc1cc(C)c(/C=C2\C(=O)Nc3ccccc32)[nH]1 : inactive
Cc1cccc(C)c1NC(=O)C(C)N (stereo unspecified) : inactive

For C[N+](C)(C)CCCCCCCCCC[N+](C)(C)C , what call appears in the results of this test? inactive

For CCN(CC)CCNC(=O)c1ccc(NC(C)=O)cc1 , what call appears in the results of this test? inactive

For CCCNC(C)C(=O)Nc1ccccc1C (stereo unspecified) , what call appears in the results of this test? inactive

For CCOC(=O)C1=C(C)NC(C)=C(C(=O)OC)C1c1cccc(Cl)c1Cl (stereo unspecified) , what call appears in the results of this test? inactive

For CCN(Cc1ccncc1)C(=O)C(CO)c1ccccc1 (stereo unspecified) , what call appears in the results of this test? inactive

For CC1=NS(=O)(=O)c2cc(Cl)ccc2N1 , what call appears in the results of this test? inactive

For CCCCCCCC/C=C\CCCCCCCC(=O)NCc1ccc(O)c(OC)c1 , what call appears in the results of this test? active

For OCCN1CCN(CCCN2c3ccccc3C=Cc3ccccc32)CC1 , what call appears in the results of this test? inactive

For CCCN1C[C@H](CSC)C[C@@H]2c3cccc4[nH]cc(c34)C[C@H]21 , what call appears in the results of this test? inactive

---

Test system: DIV30
Assay summary: qHTS profiling for inhibitors of Plasmodium falciparum proliferation (AID 504749); note: nearly all actives have a fitted effect of over 60% in size
Conditions: P. falciparum in erythrocytes, SYBR Green DNA, 72 h; series mostly up to 28.7 µM
Results filed as inconclusive are left out. Activity calls are given as the source filed them. Calls come from the whole dose curve; as a rule, active = well fitted inhibition curve with a large enough effect; inconclusive = small, poorly fitted or top-dose-only effect; inactive = flat fitted curve, though single readings scatter.
Returns: one label drawn from active, inactive

CCN1CCC[C@H]1CNC(=O)c1c(O)c(Cl)cc(Cl)c1OC : inactive
Cc1ccc(S(=O)(=O)NC(=O)NN2CCCCCC2)cc1 : inactive
O=c1[nH]c(=O)n([C@H]2C[C@H](O)[C@@H](CO)O2)cc1Br : inactive

Consider the record given below.
For CCCCNC(=O)NS(=O)(=O)c1ccc(C)cc1 , what call appears in the results of this test? inactive

---

Tested on: CP325
Assay summary: qHTS profiling for inhibitors of Plasmodium falciparum proliferation (AID 504749); note: nearly all actives have a fitted effect of over 60% in size
Conditions: P. falciparum in erythrocytes, SYBR Green DNA, 72 h; series mostly up to 28.7 µM
Results filed as inconclusive are left out. Active and inactive are the calls of the source. The call rests on the fitted dose curve; in most records, active means well fitted inhibition curve with a large enough effect; inconclusive means small, poorly fitted or top-dose-only effect; inactive means flat fitted curve, though single readings scatter.
Returns: one label drawn from active, inactive

Worked examples follow.
NC1=NCC2c3ccccc3Cc3ccccc3N12 (centres undefined) : inactive
CC(C(=O)O)c1ccc(CC2CCCC2=O)cc1 (centres undefined) : inactive
CCn1cc(C(=O)O)c(=O)c2cc3c(cc21)OCO3 : inactive
CCN(CC)CCNC(=O)c1ccc(NC(C)=O)cc1 : inactive
COc1cc2c(cc1OC)-c1cc(=Nc3c(C)cc(C)cc3C)n(C)c(=O)n1CC2 : active
C[N+](C)(C)CCCCCCCCCC[N+](C)(C)C : active
CC(N=C(NC#N)Nc1ccncc1)C(C)(C)C (centres undefined) : inactive
CC(=O)Oc1cc(C(C)C)c(OCCN(C)C)cc1C : inactive
C[C@]12CCC(=O)C=C1CC[C@@H]1[C@@H]2CC[C@@]2(C)[C@H]1CC[C@]2(O)C(=O)CO : inactive
O=C(CCNNC(=O)c1ccncc1)NCc1ccccc1 : inactive

For CCN(Cc1ccncc1)C(=O)C(CO)c1ccccc1 (centres undefined) , what call appears in the results of this test? inactive

---

Test system: MCC-26
Assay summary: qHTS assay to identify novel small-molecules to repurpose for Merkel cell carcinoma treatment (AID 1296009); note: nearly all actives have a fitted effect of over 60% in size; note: potency is the fitted concentration of half-maximal effect
Conditions: MCC and control cell lines, CellTiter-Glo viability, 72 h; series mostly up to 46 µM
Inconclusive results are not listed. Active and inactive are the calls of the source. Calls come from the whole dose curve; as a rule, active = well fitted inhibition curve with a large enough effect; inconclusive = small, poorly fitted or top-dose-only effect; inactive = flat fitted curve, though single readings scatter.
Parameter measured: Potency

Examples with their reported Potency follow.
Brc1c(NC2=NCCN2)ccc2nccnc12 : inactive
Cc1ccc(/C(=C\CN2CCCC2)c2ccccn2)cc1 : inactive
O=C(O)CP(=O)(O)O : inactive
C[n+]1cc2c3c(ccc2c2ccc4cc5c(cc4c21)OCO5)OCO3 : 3.66 µM (active)

Turning to the following compound.
Using the record for CN=C(NC#N)NCCSCc1nc[nH]c1C , report its Potency. inactive

---

Catalogue of max response readings, one per entry.
Assay summary: qHTS Assay for Lipid Storage Modulators (AID 1519)
Conditions: Drosophila S3 cells, BODIPY lipid droplet/cell ratio, laser cytometry; measured here: lipid channel max response; cells loaded with oleic acid
Records with an inconclusive call do not appear.
Reply numerically in %, unit not repeated.

CCCN(CCC)CCc1cccc2c1CC(=O)N2 : 11.6
CCn1ccnc1CC1COc2ccccc2O1 (centres undefined) : 60.7
CC(=O)Oc1cc(C(C)C)c(OCCN(C)C)cc1C : -5.49
CC(C)[N+](C)(CCOC(=O)C1c2ccccc2Oc2ccccc21)C(C)C : -8.2
CC(C(=O)O)c1ccc(CC2CCCC2=O)cc1 (centres undefined) : -27
NC/C=C/C(=O)O : 13.9
CCN1CCc2nc(N)oc2CC1 : -7.55
Cc1nc2sccn2c(=O)c1CCN1CCC(=C(c2ccc(F)cc2)c2ccc(F)cc2)CC1 : 25.6

Turning to the following molecule.
Using the record for C[N+](C)(C)CCOC(N)=O , report its max response. 11.4
